Please respond with reported growth inhibition for every item in the list.
experiment: S. cerevisiae growth inhibition in restrictive medium, OD615, pilot screen, restrictive growth control, yeast lifespan reduction project (AID 706); conditions: OD615, 48 h, at 10 µM, hits give high values;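 further: modified DeaD lifespan yeast strain shifted to restrictive glucose medium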
Calls of active or inactive are those of the source.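 How the source made its calls: active means growth inhibition above a set limit, 3 SD over mean compound inhibition, in both replicates (cut at about 43% in these data); inconclusive means above the limit in only one replicate; inactive means at or below the limit in both replicates.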

# example entries with known answers
Value of growth inhibition reported for the compound CC1CCCN(C(=O)C23CCC(C)(C(=O)C2)C3(C)C)C1 (stereo not drawn) is -8.69% (inactive)

Value of growth inhibition reported for the compound `C=CCOc1ccc(/C(CC)=N/O)c(OC)c1` is -11.4% (inactive)

Value of growth inhibition reported for the compound `CCOC(=O)Cn1c(=O)oc2cc(S(=O)(=O)NCc3cccs3)ccc21` is 1.21% (inactive)

Working through the 2 compounds below one at a time, give growth inhibition for each.
1. CCCCN(C(=O)c1ccc(Cl)cc1)C1CC2CCC(C1)N2C (stereo not drawn)
2. CCc1c(C)c2c(C)nn(-c3ccccc3)c2[nH]c1=O

Completion:
1. 1.71% (inactive)
2. 4.15% (inactive)

Working through the 8 compounds below one at a time, give growth inhibition for each.
1. COc1ccc(CCn2c(N)c(S(=O)(=O)c3cccs3)c3nc4ccccc4nc32)cc1OC
2. O=C(Cn1nc(Cc2cccnc2)c2ccccc2c1=O)Nc1ccc2c(c1)OCO2
3. O=C1C(Cl)=C(NCC2CCCO2)C(=O)N1C1CCCCC1 (stereo not drawn)
4. Clc1cccc(Nc2ncnc3c2cnn3-c2ccccc2)c1
5. CCSc1nc(O)c(CC)c(=O)n1C(C)CC (stereo not drawn)
6. O=C(CSc1nc2ccccc2o1)NCc1ccc2c(c1)OCO2
7. COc1cccc(-c2cc(C(=O)N3CCCCCC3)no2)c1
8. C(=N\c1c(-c2ccccc2)nc2n1CCS2)/c1ccccc1

Completion:
1: -27.6% (inactive); 2: 7.93% (inactive); 3: 8.66% (inactive); 4: -12.2% (inactive); 5: -3.4% (inactive); 6: -2.3% (inactive); 7: -18.2% (inactive); 8: 40.4% (inactive)

Working through the 2 compounds below one at a time, give growth inhibition for each.
1. CC(C)CC1NC2(C(=O)N(C)c3ccccc32)C2C(=O)N(C(C)C)C(=O)C12 (stereo not drawn)
2. CN(C(=O)c1ccco1)c1nnc(C23CC4CC(CC(C4)C2)C3)s1

Completion:
["6.6% (inactive)", "-8.94% (inactive)"]

Working through the 6 compounds below one at a time, give growth inhibition for each.
1. CCOc1ccccc1N(CC(=O)N1CCCCCC1)S(C)(=O)=O
2. CC1Cc2nc(SCC(=O)OCc3ccccc3)n(C)c(=O)c2S1 (stereo not drawn)
3. O=C(Cn1ncc2c1-c1ccccc1OC2)N1CCN(c2ccccn2)CC1
4. Oc1ccccc1-c1nnc(COc2ccc(Cl)cc2Cl)o1
5. CCc1cc(=O)n2[nH]c(C)c(-c3ccccc3OC)c2n1
6. CN(C)CCN1C(=O)C(O)=C(C(=O)c2cc3ccccc3o2)C1c1ccc(N(C)C)cc1 (stereo not drawn)

Completion:
1. -10.9% (inactive)
2. 1.86% (inactive)
3. -14.6% (inactive)
4. -11.7% (inactive)
5. 0.365% (inactive)
6. -14.1% (inactive)

Working through the 2 compounds below one at a time, give growth inhibition for each.
1. O=C(NC1CCN(Cc2ccccc2)CC1)C1CCN(S(=O)(=O)c2cccc3cccnc23)CC1
2. CSC1=N/C(=C\C=C\c2cccs2)C(=O)S1

Completion:
1. 1.73% (inactive)
2. 0.455% (inactive)

Data provenance is PubChem BioAssay.
